Target: DNA topoisomerase 2-alpha (Homo sapiens) (UniProt P11388)
Sequence (P11388 whole entry): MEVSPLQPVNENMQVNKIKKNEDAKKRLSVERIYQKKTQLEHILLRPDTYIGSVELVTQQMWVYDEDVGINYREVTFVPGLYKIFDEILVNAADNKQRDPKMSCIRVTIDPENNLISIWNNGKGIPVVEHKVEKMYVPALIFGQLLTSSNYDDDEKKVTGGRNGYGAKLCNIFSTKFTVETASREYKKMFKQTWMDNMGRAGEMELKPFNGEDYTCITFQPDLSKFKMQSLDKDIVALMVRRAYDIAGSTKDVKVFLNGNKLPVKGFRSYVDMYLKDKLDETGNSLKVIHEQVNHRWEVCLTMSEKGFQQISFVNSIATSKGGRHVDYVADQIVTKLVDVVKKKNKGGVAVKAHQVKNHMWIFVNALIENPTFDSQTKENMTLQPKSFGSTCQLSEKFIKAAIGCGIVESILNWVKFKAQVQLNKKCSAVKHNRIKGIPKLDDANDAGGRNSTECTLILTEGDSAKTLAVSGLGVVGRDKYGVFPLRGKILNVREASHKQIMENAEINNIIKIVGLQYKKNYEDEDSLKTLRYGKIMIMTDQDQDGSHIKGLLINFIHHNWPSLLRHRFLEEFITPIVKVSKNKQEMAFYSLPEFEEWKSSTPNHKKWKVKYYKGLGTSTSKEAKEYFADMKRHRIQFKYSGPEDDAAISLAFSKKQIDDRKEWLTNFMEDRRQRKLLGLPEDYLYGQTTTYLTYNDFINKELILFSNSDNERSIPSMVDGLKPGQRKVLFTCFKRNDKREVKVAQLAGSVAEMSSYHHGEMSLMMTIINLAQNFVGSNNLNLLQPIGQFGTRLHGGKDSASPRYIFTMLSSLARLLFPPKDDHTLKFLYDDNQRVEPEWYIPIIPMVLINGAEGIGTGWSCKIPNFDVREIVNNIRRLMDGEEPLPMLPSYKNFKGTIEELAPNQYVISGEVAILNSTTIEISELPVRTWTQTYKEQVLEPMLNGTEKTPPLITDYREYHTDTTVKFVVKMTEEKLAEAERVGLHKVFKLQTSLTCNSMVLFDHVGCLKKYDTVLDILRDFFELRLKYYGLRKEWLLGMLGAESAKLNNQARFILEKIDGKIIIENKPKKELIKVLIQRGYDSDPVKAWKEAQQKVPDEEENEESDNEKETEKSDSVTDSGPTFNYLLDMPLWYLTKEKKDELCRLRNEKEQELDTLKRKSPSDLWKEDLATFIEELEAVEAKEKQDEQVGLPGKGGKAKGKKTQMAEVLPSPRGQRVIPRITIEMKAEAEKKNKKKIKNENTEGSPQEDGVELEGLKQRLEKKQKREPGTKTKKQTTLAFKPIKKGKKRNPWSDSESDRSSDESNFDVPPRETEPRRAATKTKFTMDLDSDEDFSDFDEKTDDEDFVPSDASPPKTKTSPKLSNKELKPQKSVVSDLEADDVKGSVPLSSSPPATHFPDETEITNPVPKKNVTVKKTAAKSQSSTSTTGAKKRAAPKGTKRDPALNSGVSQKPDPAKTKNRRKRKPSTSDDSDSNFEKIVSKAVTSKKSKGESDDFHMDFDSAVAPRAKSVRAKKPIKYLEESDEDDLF
Test: Inhibition of human DNA topoisomerase-2alpha-mediated relaxation of supercoiled pBR322 at 20 uM after 30 mins using ethidium bromide staining by agarose gel electrophoresis
recorded.metric: inhibition (%)
Could you give me the number in %? Just the number is fine.

Here's what some known entries look like.
Oc1cccc(-c2cc(-c3ccc(Cl)cc3)nc(-c3cccs3)c2)c1 = 54.2
Oc1cccc(-c2cc(-c3ccsc3)nc(-c3ccccc3Cl)c2)c1 = 15.7
Oc1ccc(-c2cc(-c3ccc(Cl)cc3)nc(-c3cccs3)c2)cc1 = 22
Oc1cccc(-c2cc(-c3ccc(Cl)cc3)nc(-c3ccco3)c2)c1 = 16.7
Oc1ccc(-c2cc(-c3cccs3)nc(-c3ccccc3Cl)c2)cc1 = 8.2

IN: State the recorded inhibition for this entry: Oc1ccc(-c2cc(-c3ccc(Cl)cc3)nc(-c3ccco3)c2)cc1
OUT: 36.2

====

Target: UniProt P11388
Experiment: Inhibition of human DNA topoisomerase-2alpha-mediated relaxation of supercoiled pBR322 at 100 uM after 30 mins using ethidium bromide staining by agarose gel electrophoresis
We use 60% as the dividing line for inhibition: on or above the line is Criterion met, below is Criterion not met.

IN: Hi, just wondering whether Oc1ccc(-c2cc(-c3ccccc3)nc(-c3cccc(Cl)c3)c2)cc1 shows inhibition of 60% or higher.
OUT: Criterion met

IN: Hi team, for Oc1ccc(-c2cc(-c3ccncc3)nc(-c3ccc(Cl)cc3)c2)cc1 , is the recorded inhibition at or above 60%?
OUT: Criterion not met

IN: Determine whether measured inhibition meets or exceeds 60% for Oc1ccc(-c2cc(-c3ccccn3)nc(-c3ccccc3Cl)c2)cc1
OUT: Criterion not met

IN: Is it the case that Oc1ccc(-c2cc(-c3ccsc3)nc(-c3ccccc3Cl)c2)cc1 has inhibition reaching or exceeding 60%?
OUT: Criterion met

IN: Answer whether inhibition of Oc1cccc(-c2cc(-c3ccsc3)nc(-c3cccc(Cl)c3)c2)c1 is greater than or equal to 60%.
OUT: Criterion met

IN: inhibition >= 60% for Oc1cccc(-c2cc(-c3ccc(Cl)cc3)nc(-c3cccnc3)c2)c1 ?
OUT: Criterion not met

IN: Is inhibition at least 60%? Consider Oc1ccc(-c2cc(-c3ccc(Cl)cc3)nc(-c3cccs3)c2)cc1
OUT: Criterion met

IN: Hello, I need to know if Oc1ccc(-c2cc(-c3cccc(Cl)c3)nc(-c3ccccn3)c2)cc1 has measured inhibition not below 60%. Thanks!
OUT: Criterion met

IN: Is the recorded value of inhibition equal to or greater than 60% for this compound? Oc1cccc(-c2cc(-c3cccc(Cl)c3)nc(-c3ccccn3)c2)c1
OUT: Criterion not met

IN: Determine whether this compound has inhibition no lower than 60%: Oc1cccc(-c2cc(-c3ccncc3)nc(-c3ccccc3Cl)c2)c1
OUT: Criterion not met

IN: Hi, just wondering whether Oc1cccc(-c2cc(-c3ccccc3)nc(-c3ccc(Cl)cc3)c2)c1 shows inhibition of 60% or higher.
OUT: Criterion met

IN: Decide: inhibition of Oc1cccc(-c2cc(-c3cccnc3)nc(-c3ccccc3Cl)c2)c1 >= 60%?
OUT: Criterion not met

====

Biological target: DNA topoisomerase 2-alpha (Homo sapiens) (UniProt P11388)
Assay: Inhibition of human DNA topoisomerase-2alpha-mediated relaxation of supercoiled pBR322 at 20 uM after 30 mins using ethidium bromide staining by agarose gel electrophoresis
recorded.metric: inhibition (%)
Value expressed in %; do not type the unit.

Solved cases (5 shown):
Oc1ccc(-c2cc(-c3ccsc3)nc(-c3ccccc3Cl)c2)cc1 = 29.2
Oc1cccc(-c2cc(-c3cccs3)nc(-c3ccccc3Cl)c2)c1 = 10.7
Oc1cccc(-c2cc(-c3ccc(Cl)cc3)nc(-c3cccnc3)c2)c1 = 10.6
Oc1ccc(-c2cc(-c3cccnc3)nc(-c3cccc(Cl)c3)c2)cc1 = 0
Oc1ccc(-c2cc(-c3ccc(Cl)cc3)nc(-c3cccnc3)c2)cc1 = 11.9

IN: Give DNA topoisomerase 2-alpha (Homo sapiens) (UniProt P11388) inhibition for Oc1ccc(-c2cc(-c3cccc(Cl)c3)nc(-c3ccccn3)c2)cc1
OUT: 0

IN: DNA topoisomerase 2-alpha (Homo sapiens) (UniProt P11388) / inhibition / Oc1cccc(-c2cc(-c3cccc(Cl)c3)nc(-c3ccco3)c2)c1 : value?
OUT: 4.8

IN: Item Oc1cccc(-c2cc(-c3ccc(Cl)cc3)nc(-c3ccccn3)c2)c1 with DNA topoisomerase 2-alpha (Homo sapiens) (UniProt P11388) - inhibition?
OUT: 13.1

IN: Give the reported inhibition for Oc1cccc(-c2cc(-c3ccsc3)nc(-c3cccc(Cl)c3)c2)c1 (system: DNA topoisomerase 2-alpha (Homo sapiens) (UniProt P11388)).
OUT: 15.4

IN: # value lookup — system DNA topoisomerase 2-alpha (Homo sapiens) (UniProt P11388), readout inhibition, item Oc1ccc(-c2cc(-c3ccc(Cl)cc3)nc(-c3ccccn3)c2)cc1
OUT: 13.1

IN: Find inhibition (DNA topoisomerase 2-alpha (Homo sapiens) (UniProt P11388)) for the entry Oc1ccc(-c2cc(-c3ccco3)nc(-c3ccccc3Cl)c2)cc1
OUT: 7.7

====

Molecular target: DNA topoisomerase 1 (Homo sapiens) (UniProt P11387)
Assay: Inhibition of recombinant human DNA topoisomerase-1-mediated relaxation of supercoiled pBR322 at 20 uM after 30 mins using ethidium bromide staining by agarose gel electrophoresis
Each entry below lists one item and its recorded inhibition value.
Numeric only. Scale: %

Oc1ccc(-c2cc(-c3ccc(Cl)cc3)nc(-c3cccs3)c2)cc1 = 0
Oc1cccc(-c2cc(-c3ccc(Cl)cc3)nc(-c3ccccn3)c2)c1 = 0
Oc1ccc(-c2cc(-c3ccccc3)nc(-c3ccc(Cl)cc3)c2)cc1 = 55.2

IN: Param readout= inhibition; system= DNA topoisomerase 1 (Homo sapiens) (UniProt P11387); entry= Oc1ccc(-c2cc(-c3cccc(Cl)c3)nc(-c3ccccn3)c2)cc1 ; returns value.
OUT: 0

IN: Give inhibition (DNA topoisomerase 1 (Homo sapiens) (UniProt P11387)) of the following molecule: Oc1ccc(-c2cc(-c3ccc(Cl)cc3)nc(-c3ccsc3)c2)cc1
OUT: 30.7

IN: Any idea what inhibition came out for Oc1ccc(-c2cc(-c3cccnc3)nc(-c3cccc(Cl)c3)c2)cc1 on DNA topoisomerase 1 (Homo sapiens) (UniProt P11387)?
OUT: 0

IN: For the record Oc1ccc(-c2cc(-c3cccc(Cl)c3)nc(-c3cccs3)c2)cc1 , what value of inhibition is listed for DNA topoisomerase 1 (Homo sapiens) (UniProt P11387)?
OUT: 0

====

Listing: inhibition of selected compounds
Target: UniProt:P11387
Experiment: Inhibition of recombinant human DNA topoisomerase-1-mediated relaxation of supercoiled pBR322 at 100 uM after 30 mins using ethidium bromide staining by agarose gel electrophoresis
Kindly report the value followed by its unit.

Oc1cccc(-c2cc(-c3ccncc3)nc(-c3cccc(Cl)c3)c2)c1 = 0%
Oc1ccc(-c2cc(-c3cccnc3)nc(-c3cccc(Cl)c3)c2)cc1 = 55.2%
Oc1ccc(-c2cc(-c3ccc(Cl)cc3)nc(-c3cccnc3)c2)cc1 = 18.8%
Oc1cccc(-c2cc(-c3ccncc3)nc(-c3ccc(Cl)cc3)c2)c1 = 8%

IN: If you can, please state the reported inhibition value of Oc1ccc(-c2cc(-c3ccccc3)nc(-c3cccc(Cl)c3)c2)cc1 .
OUT: 0%

IN: Reported inhibition for Oc1ccc(-c2cc(-c3ccsc3)nc(-c3cccc(Cl)c3)c2)cc1 : what is it?
OUT: 26%

====

Molecular target: DNA topoisomerase 1 (Homo sapiens) (UniProt P11387)
Sequence (whole entry): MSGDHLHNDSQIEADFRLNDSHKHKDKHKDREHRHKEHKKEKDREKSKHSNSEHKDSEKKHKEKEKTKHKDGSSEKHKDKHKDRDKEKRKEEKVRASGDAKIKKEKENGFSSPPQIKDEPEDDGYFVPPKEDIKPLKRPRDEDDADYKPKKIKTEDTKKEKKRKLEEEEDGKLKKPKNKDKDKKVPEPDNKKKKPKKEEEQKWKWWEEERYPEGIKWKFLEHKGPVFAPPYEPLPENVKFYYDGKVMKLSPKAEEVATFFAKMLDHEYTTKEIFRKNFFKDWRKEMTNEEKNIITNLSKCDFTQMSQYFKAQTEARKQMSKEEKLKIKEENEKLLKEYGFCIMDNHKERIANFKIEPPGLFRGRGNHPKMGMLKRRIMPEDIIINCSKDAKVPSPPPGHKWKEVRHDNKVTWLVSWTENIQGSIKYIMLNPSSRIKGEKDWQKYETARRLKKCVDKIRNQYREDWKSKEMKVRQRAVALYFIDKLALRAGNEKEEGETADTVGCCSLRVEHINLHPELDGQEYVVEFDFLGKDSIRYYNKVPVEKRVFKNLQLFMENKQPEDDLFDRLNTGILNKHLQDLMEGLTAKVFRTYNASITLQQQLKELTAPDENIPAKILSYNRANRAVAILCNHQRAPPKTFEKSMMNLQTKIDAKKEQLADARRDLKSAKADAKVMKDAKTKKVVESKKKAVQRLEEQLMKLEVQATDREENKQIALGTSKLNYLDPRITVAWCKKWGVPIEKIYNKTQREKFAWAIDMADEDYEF
Experiment: Inhibition of recombinant human DNA topoisomerase-1-mediated relaxation of supercoiled pBR322 at 100 uM after 30 mins using ethidium bromide staining by agarose gel electrophoresis
recorded.metric: inhibition (%)
Express the result in % but write the number alone.

Observe how each entry below is paired with its result.
Oc1ccc(-c2cc(-c3cccc(Cl)c3)nc(-c3ccco3)c2)cc1 = 25.5
Oc1cccc(-c2cc(-c3ccsc3)nc(-c3cccc(Cl)c3)c2)c1 = 26.2
Oc1cccc(-c2cc(-c3ccco3)nc(-c3ccccc3Cl)c2)c1 = 0
Oc1cccc(-c2cc(-c3ccc(Cl)cc3)nc(-c3ccsc3)c2)c1 = 11.7
Oc1cccc(-c2cc(-c3cccs3)nc(-c3ccccc3Cl)c2)c1 = 2.7
Oc1ccc(-c2cc(-c3cccc(Cl)c3)nc(-c3cccs3)c2)cc1 = 52.4
Oc1cccc(-c2cc(-c3ccccc3)nc(-c3ccc(Cl)cc3)c2)c1 = 7.1
Oc1ccc(-c2cc(-c3ccc(Cl)cc3)nc(-c3ccsc3)c2)cc1 = 47.7
Oc1ccc(-c2cc(-c3ccc(Cl)cc3)nc(-c3ccco3)c2)cc1 = 15.8
Oc1ccc(-c2cc(-c3ccco3)nc(-c3ccccc3Cl)c2)cc1 = 3.9

# evaluate next
IN: Enter reported inhibition observed with DNA topoisomerase 1 (Homo sapiens) (UniProt P11387) for Oc1cccc(-c2cc(-c3cccc(Cl)c3)nc(-c3ccccn3)c2)c1
OUT: 0.4

Data origin: ChEMBL document CHEMBL2169746
